Run Description: Half-life in C57BL/6 mouse at 40 mg/kg, ip
Type: ADME, organism-based
Condition Parameters: in vivo
Quantity Kind: half-life (min)
Use min as the unit, but write only the number.

Query: # query: half-life of entry C[C@@H]1CC[C@@]23C[C@H](O)C(=O)[C@@]2(O)[C@]1(C)[C@H](OC(=O)CCl)C[C@@H](C1=CCn2c(=O)n(-c4ccccc4)c(=O)n2C1)[C@@H]3C
Reply: 9.96

###

System: HCT-116
Run Description: Antiproliferative activity against human HCT-116 cells assessed as cell death after 72 hrs by Alamar blue viability assay
Format: functional, cell-based
Condition Parameters: HCT-116, 72 h
I'd be grateful if you could share measured IC50 for these entries.
Kindly provide the numeric value in µM only, without the unit symbol.

Query: Which IC50 is reported for this compound? C[C@@H]1CC[C@@]23C[C@H](O)C(=O)[C@@]2(O)[C@]1(C)[C@H](OC(=O)CCl)C[C@@H](C1=CCn2c(=O)n(-c4ccccc4)c(=O)n2C1)[C@@H]3C
Reply: 3.5

Query: Field request: IC50 | item: CO[C@H]1C[C@@]23CC[C@@H](C)[C@@](C)([C@H](OC(=O)CCl)C[C@@H](C4=CCn5c(=O)n(-c6ccccc6)c(=O)n5C4)[C@@H]2C)[C@]3(O)C1=O
Reply: 3

Query: Using the record for CC1=CC(C)=[N+]2C1=Cc1ccc(CCC(=O)NCCCn3cc(CN4C(=O)C5CC=C([C@@H]6C[C@@H](OC(=O)CI)[C@]7(C)[C@H](C)CC[C@]8(C[C@H](O)C(=O)[C@]87O)[C@H]6C)CC5C4=O)nn3)n1[B-]2(F)F (stereo partly drawn) , report its IC50.
Reply: 15.7

Query: Bench note: what IC50 did CC1=CC(C)=[N+]2C1=Cc1ccc(CCC(=O)NCCCn3cc(CN4C(=O)C5CC=C([C@@H]6C[C@@H](OC(=O)CCl)[C@]7(C)[C@H](C)CC[C@]8(C[C@H](O)C(=O)[C@]87O)[C@H]6C)CC5C4=O)nn3)n1[B-]2(F)F (stereo partly drawn) show?
Reply: 14.2

Query: Find the recorded IC50 belonging to C[C@@H]1CC[C@@]23C[C@H](O)C(=O)[C@@]2(O)[C@]1(C)[C@H](OC(=O)CI)C[C@@H](C1=CCn2c(=O)n(-c4ccccc4)c(=O)n2C1)[C@@H]3C and report it.
Reply: 0.66

Query: Need IC50 of C#CCN1C(=O)C2CC=C([C@@H]3C[C@@H](OC(=O)CCl)[C@]4(C)[C@H](C)CC[C@]5(C[C@H](O)C(=O)[C@]54O)[C@H]3C)CC2C1=O (stereo partly drawn) , thanks.
Reply: 10.5

Query: Data request, read-out IC50, for C[C@@H]1CC[C@@]23C[C@H](O)C(=O)[C@@]2(O)[C@]1(C)[C@H](OC(=O)CCl)C[C@@H](C1=CCC2C(=O)N(c4ccccc4)C(=O)C2C1)[C@@H]3C (stereo partly drawn)
Reply: 6.4

Query: Fill in the blank: the reported IC50 of CC(=O)O[C@H]1C[C@@]23CC[C@@H](C)[C@@](C)([C@H](OC(=O)CCl)C[C@@H](C4=CCn5c(=O)n(-c6ccccc6)c(=O)n5C4)[C@@H]2C)[C@]3(O)C1=O is ____.
Reply: 3.9
